The reported measurements were obtained from paper PMC4740573.

# assay comment: Plasma pharmacokinetics in healthy subjects
# measurement parameters: human, in vivo, 60 mg, C max, healthy subjects, edoxaban 60 mg once daily alone, day 4 (treatment 1), mean ± SD
property measured: Cmax (ng/mL)
A number alone suffices; assume ng/mL.

Q: Annotate the molecule CN1CCc2nc(C(=O)N[C@@H]3C[C@@H](C(=O)N(C)C)CC[C@@H]3NC(=O)C(=O)Nc3ccc(Cl)cn3)sc2C1 [Edoxaban, edoxaban] with its measured Cmax.
A: 303

* * *

# assay comment: Plasma pharmacokinetics in healthy subjects
# measurement parameters: human, in vivo, 60 mg, AUCτ, edoxaban alone, day 4 (treatment 1), 24 h dosing interval, mean ± SD
property measured: AUC (ng·h/mL)
A number alone suffices; assume ng·h/mL.

Q: Annotate the compound CN1CCc2nc(C(=O)N[C@@H]3C[C@@H](C(=O)N(C)C)CC[C@@H]3NC(=O)C(=O)Nc3ccc(Cl)cn3)sc2C1 with its measured AUC.
A: 1990

* * *

# assay comment: Plasma pharmacokinetics in healthy subjects
# measurement parameters: human, in vivo, 60 mg, C trough, edoxaban alone, day 1 (treatment 1), mean ± SD
property measured: concentration at 1 day (µg/mL)
A number alone suffices; assume µg/mL.

Q: Annotate the molecule CN1CCc2nc(C(=O)N[C@@H]3C[C@@H](C(=O)N(C)C)CC[C@@H]3NC(=O)C(=O)Nc3ccc(Cl)cn3)sc2C1 with its measured concentration at 1 day.
A: 0.014

* * *

# assay comment: Plasma pharmacokinetics in healthy subjects
# measurement parameters: human, in vivo, 60 mg, C trough, edoxaban day 4 after switching from rivaroxaban (treatment 2), mean ± SD
property measured: concentration at 4 day (ng/mL)
A number alone suffices; assume ng/mL.

Q: Annotate the compound CN1CCc2nc(C(=O)N[C@@H]3C[C@@H](C(=O)N(C)C)CC[C@@H]3NC(=O)C(=O)Nc3ccc(Cl)cn3)sc2C1 with its measured concentration at 4 day.
A: 13.4

* * *

# assay comment: Plasma pharmacokinetics in healthy subjects
# measurement parameters: human, in vivo, 60 mg, C max, healthy subjects, edoxaban 60 mg on day 4 after switching from dabigatran etexilate 150 mg twice daily for 3 days (treatment 3), mean ± SD
property measured: Cmax (ng/mL)
A number alone suffices; assume ng/mL.

Q: Annotate the molecule CN1CCc2nc(C(=O)N[C@@H]3C[C@@H](C(=O)N(C)C)CC[C@@H]3NC(=O)C(=O)Nc3ccc(Cl)cn3)sc2C1 with its measured Cmax.
A: 280

* * *

# assay comment: Plasma pharmacokinetics in healthy subjects
# measurement parameters: human, in vivo, 60 mg, AUCτ, edoxaban day 4 after switching from dabigatran etexilate (treatment 3), 24 h dosing interval, mean ± SD
property measured: AUC

Q: Annotate the compound CN1CCc2nc(C(=O)N[C@@H]3C[C@@H](C(=O)N(C)C)CC[C@@H]3NC(=O)C(=O)Nc3ccc(Cl)cn3)sc2C1 with its measured AUC.
A: 1680 ng·h/mL

* * *

# assay comment: Plasma pharmacokinetics in healthy subjects
# measurement parameters: human, in vivo, 60 mg, C max, healthy subjects, edoxaban 60 mg on day 4 after switching from rivaroxaban 20 mg once daily for 3 days (treatment 2), mean ± SD
property measured: Cmax (ng/mL)
A number alone suffices; assume ng/mL.

Q: Annotate the molecule CN1CCc2nc(C(=O)N[C@@H]3C[C@@H](C(=O)N(C)C)CC[C@@H]3NC(=O)C(=O)Nc3ccc(Cl)cn3)sc2C1 [Edoxaban, edoxaban] with its measured Cmax.
A: 288

* * *

# assay comment: Plasma pharmacokinetics in healthy subjects
# measurement parameters: human, in vivo, 60 mg, AUCτ, edoxaban day 4 after switching from rivaroxaban (treatment 2), 24 h dosing interval, mean ± SD
property measured: AUC (ng·h/mL)
A number alone suffices; assume ng·h/mL.

Q: Annotate the compound CN1CCc2nc(C(=O)N[C@@H]3C[C@@H](C(=O)N(C)C)CC[C@@H]3NC(=O)C(=O)Nc3ccc(Cl)cn3)sc2C1 with its measured AUC.
A: 1740

* * *

# assay comment: Plasma pharmacokinetics in healthy subjects
# measurement parameters: human, in vivo, 60 mg, C trough, edoxaban day 4 after switching from dabigatran etexilate (treatment 3), mean ± SD
property measured: concentration at 4 day (ng/mL)
A number alone suffices; assume ng/mL.

Q: Annotate the molecule CN1CCc2nc(C(=O)N[C@@H]3C[C@@H](C(=O)N(C)C)CC[C@@H]3NC(=O)C(=O)Nc3ccc(Cl)cn3)sc2C1 with its measured concentration at 4 day.
A: 12.8

* * *

# assay comment: Plasma pharmacokinetics in healthy subjects
# measurement parameters: human, in vivo, 60 mg, AUCτ, edoxaban alone, day 1 (treatment 1), 24 h dosing interval, mean ± SD
property measured: AUC (µg·h/mL)
A number alone suffices; assume µg·h/mL.

Q: Annotate the compound CN1CCc2nc(C(=O)N[C@@H]3C[C@@H](C(=O)N(C)C)CC[C@@H]3NC(=O)C(=O)Nc3ccc(Cl)cn3)sc2C1 with its measured AUC.
A: 1.78

* * *

# assay comment: Plasma pharmacokinetics in healthy subjects
# measurement parameters: human, in vivo, 60 mg, C trough, edoxaban alone, day 4 (treatment 1), mean ± SD
property measured: concentration at 4 day (ng/mL)
A number alone suffices; assume ng/mL.

Q: Annotate the compound CN1CCc2nc(C(=O)N[C@@H]3C[C@@H](C(=O)N(C)C)CC[C@@H]3NC(=O)C(=O)Nc3ccc(Cl)cn3)sc2C1 with its measured concentration at 4 day.
A: 15.5
